TESTED ON: Dual specificity protein phosphatase 6 (Rattus norvegicus)
MEASUREMENT PROTOCOL: MKP-3 phosphatase inhibitors, primary screen, biochemical, rat enzyme, in vitro (AID 425);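 note: plate controls were vehicle for no effect and reference inhibitor for full effect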
CONDITION SUMMARY: recombinant MKP-3 phosphatase activity, fluorescence; at 20 µM; active compounds read high
The whole screen tested about 110,000 compounds, of which about 190 (0.17%) were called active. The entries come from a sample that favours actives as a whole. Measured potencies and affinities stand elsewhere.
PROPERTY LABEL: inhibition (%)

# COMPOUND, VAL
data = [
    ("CNc1ccc2[nH]nc3c2c1C(=O)c1ccccc1-3", -22.4),
    ("CC(C(=O)NCc1ccccn1)N1C(=O)c2ccccc2C1=O (stereo unspecified)", -2.2),
    ("CC(C)(C)C1=CC(N)=C(C(C)(C)C)C(=O)C1=O", 86.4),
    ("CN(C)c1ccc(C(C2=C(O)CC(C)(C)CC2=O)C2=C(O)CC(C)(C)CC2=O)cc1", 3.2),
    ("CC(C)(C)C1=CC(=O)C=C(C(C)(C)C)C1=O", 6.8),
    ("Cc1ccc(C(=O)c2nocc2C(=O)c2cccs2)cc1", -9.8),
    ("COc1cc(C(=O)NC(NC(=S)Nc2ccc(C(C)=O)cc2)C(Cl)(Cl)Cl)cc(OC)c1OC (stereo unspecified)", 3.5),
    ("COc1ccc(C(=O)c2no[n+]([O-])c2C(=O)c2ccc(OC)cc2)cc1", -8.8),
    ("Oc1ccccc1/C=N/Nc1cc(N2CCCC2)nc(N2CCCC2)n1", 119),
    ("COc1ccc(/C=C2\\C=C(c3ccc(Br)cc3)OC2=O)cc1[N+](=O)[O-]", 5.6),
    ("O=C(NCCN1CCOCC1)c1cccc(S(=O)(=O)N2CCCCCC2)c1", -10.5),
    ("COc1ccc(-c2cc(C(=O)N/N=C(\\C)c3ccc([N+](=O)[O-])cc3)[nH]n2)cc1", 4),
    ("Oc1ccccc1/C=N/Nc1cc(N2CCOCC2)nc(N2CCOCC2)n1", 5.6),
    ("Cc1ccc(C(=O)Nc2ccc(N3CCOCC3)c(Cl)c2)cc1C", 5.9),
    ("CC(=O)/C(C1=C(C(C)(C)C)C(=O)C(=O)C(C(C)(C)C)=C1)=C(/C)O", 6.5),
    ("O=C1C=CC(=O)c2c1c(-c1ccccc1)nn2-c1ccccc1", 63.4),
    ("CC(=O)Nc1ccc(C(=O)NCc2ccccn2)cc1", 1.3),
    ("COc1ccc(N(Cc2cc3ccc(C)cc3[nH]c2=O)C(C)=O)cc1", -3.9),
    ("CN=CC1=C(O)c2ccccc2C1=O", -0.6),
    ("Cc1ccc(-n2nc(-c3ccccc3)c3c2C(=O)C=CC3=O)cc1", 38.9),
    ("CC(=O)O[C@@]12CO[C@@H]1C[C@H](O)[C@@]1(C)C(=O)[C@H](O)C3=C(C)[C@@H](OC(=O)[C@H](O)[C@@H](NC(=O)OC(C)(C)C)c4ccccc4)C[C@](O)([C@@H](OC(=O)c4ccccc4)[C@H]21)C3(C)C", -0.3),
]
